- TARGET_OF_ASSAY: T1, recombinant FcγRIIA-131H/H allotype (ELISA coat, generated at MedImmune) (human, UniProt P12318 34-217, limits assumed)
- T1 construct: also called human FcγRIIA; CD32A
- T1 sequence (looked up): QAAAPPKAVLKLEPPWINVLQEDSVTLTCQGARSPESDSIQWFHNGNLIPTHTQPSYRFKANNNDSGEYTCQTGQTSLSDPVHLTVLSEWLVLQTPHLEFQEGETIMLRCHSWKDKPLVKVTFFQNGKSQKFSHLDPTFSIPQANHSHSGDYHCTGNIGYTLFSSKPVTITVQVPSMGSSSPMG
- PROTOCOL_DETAILS: ELISA on plate-coated FcγRIIA-131H/H (2 µg/ml), detection with goat anti-human Fc-HRP

BINDER	EC50 (read off the curve)
32LO0355 (antibody, human IgG1, V domains shown, also called optimized IV.3 clone 32LO0355) VH: QVQLVQSGAEVKKPGASVKVSCKASGYTFTNYGMNWVRQAPGQRLEWMGWLNTYTGESWYPDDFKGRVTITRDTSASTAYMELSSLRSEDTAVYYCARGDYGYDDPLDYWGQGTLVTVSS VL: DIVMTQSPLSLPVTPGEPASISCRSSKSLLHTNKNTYLHWFLQKPGQSPQLLIYRMSVLASGVPDRFSGSGSGTDFTLKISRVEAEDVGVYYCMQHLEYPLTFGQGTKLEIK	~5 ng/mL
